- systemName: rGmolOBP7 (recombinant GmolOBP7) (Grapholita molesta)
- Sequence (A0A2R4SBC1 entry or part of it): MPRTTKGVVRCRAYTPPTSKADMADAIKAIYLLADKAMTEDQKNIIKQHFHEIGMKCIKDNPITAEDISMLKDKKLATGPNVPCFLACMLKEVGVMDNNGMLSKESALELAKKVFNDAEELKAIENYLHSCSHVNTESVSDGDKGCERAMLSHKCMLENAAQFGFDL
- assayText: biochemical
- Format: binding
- conditionInfo: 2 μM rGmolOBP7 and 2 μM 1-NPN, 20 mM Tris-HCl pH 7.4, room temperature; three independent measurements; read-out: IC50
We begin with a simple list: items and their reported pIC50.
Please report pIC50 as the negative decimal logarithm of the molar concentration, giving only the number.

(Q) Retrieve pIC50 measured for `CCCCCCCCC=O` and print it.
(A) 4.54

(Q) Retrieve pIC50 measured for CC/C=C\CCOC(C)=O [(Z)-3-Hexenyl acetate] and print it.
(A) 4.71

(Q) Retrieve pIC50 measured for CC/C=C\CC1C(=O)CCC1CC(=O)OC (stereo not drawn) [Methyl jasmonate] and print it.
(A) 4.73

Next:
(Q) Retrieve pIC50 measured for CCCCOC(=O)CCC [Butyl butyrate] and print it.
(A) 4.79
